B1: NR2F2 (parent)
chain: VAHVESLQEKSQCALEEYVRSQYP

# Variants of: B1
# test name: protein stability index of a GFP-peptide fusion (GPS, HEK-293T) (PSI 1-6); higher = more stable;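 note: lentivirally expressed fusions sorted by FACS into six bins by GFP to DsRed ratio, PSI derived from sequencing read proportions per bin multiplied by bin number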
# conditions: c terminus: a fixed tail appended
measured quantity: protein stability index
Lab note: jot the number down without any unit.

Sample records with protein stability index:
S6A | 4.04
L15Y | 4.04
P24N | 3.94
A2V | 3.27
E16W | 2.23
P24K | 3.93
S11C | 3.37
R20K | 4.18

Kindly consider the entry below.
Query block: I have this variant here, C13H , and I need its recorded protein stability index.
Result block: 4.4
